experimental-details: octanol saline (1:1) partition
Format: physicochemical
applied-conditions: read-out: Partition Coefficients (converted)
property-measured: logP

Worked cases, answers included:
CCOC(=O)CCN(O)C(=O)COCC(C)(C)COCC(=O)N(O)CCC(=O)OCC ... 0.5
CCCC(C)(COCC(=O)N(C)O)COCC(=O)N(C)O ... 0.29

P: CC(C)CC(NC(=O)COCC(C)(C)COCC(=O)NC(CC(C)C)C(=O)N(C)O)C(=O)N(C)O (stereo not shown)
Q: CC(NC(=O)COCC(C)(C)COCC(=O)NC(C)C(=O)N(C)O)C(=O)N(C)O (stereo not shown)
R: CN(O)C(=O)CCOCC(C)(C)COCCC(=O)N(C)O
Which order do these items take when sorted by rising logP? List them. Ranked list of labels, please, in the requested order.
R, Q, P
(R: -0.0862, Q: 0.29, P: 0.568)

Reference source: patent US5149845A
